Target: HLA-A*02:01_… (HLA-PEPTIDE target G8), soluble (human, enzymatically biotinylated (BirA) for screening and BLI)
Test: scFv PPE ELISA
MEASURED_ATTRIBUTE: fold selective binding, target pHLA vs minipool of negative control pHLAs

# annotated cases, reported fold selective binding, target pHLA vs minipool of negative control pHLAs shown
// query For the binder scFv R3G8-P2C10 (scFv, V domains shown, scFv) VH: QVQLVQSGAEVKKPGASVKVSCKASGYTFTSYYMHWVRQAPGQGLEWMGWINPYSGGTNYAQKFQGRVTMTRDTSTSTVYMELSSLRSEDTAVYYCAKGGIYYGSGSYPSWGQGTLVTVSS VL: DIQMTQSPSSLSASVGDRVTITCRASQDVSTWLAWYQQKPGKAPKLLIYAASSLQSGVPSRFSGSGSGTDFTLTISSLQPEDFATYYCQQSHSTPQTFGQGTKVEIK , report fold selective binding, target pHLA vs minipool of negative control pHLAs.
// result ≥ 3 fold

// query For the binder scFv G8-P2B05 (scFv, V domains shown, scFv) VH: EVQLLESGGGLVQPGGSLRLSCAASGFDFSIYSMNWVRQAPGKGLEWVSAISGSGGSTYYADSVKGRFTISRDNSKNTLYLQMNSLRAEDTAVYYCASNGNYYGSGSYYNYWGQGTLVTVSS VL: DIQMTQSPSSLSASVGDRVTITCRASQSISRWLAWYQQKPGKAPKLLIYAASSLQSGVPSRFSGSGSGTDFTLTISSLQPEDFATYYCQQYSTYPITIGQGTKVEIK , report fold selective binding, target pHLA vs minipool of negative control pHLAs.
// result ≥ 3 fold

Now consider a different binder.
// query For the binder scFv R3G8-P2E04 (scFv, V domains shown, scFv) VH: QVQLVQSGAEVKKPGSSVKVSCKASGGTFSSYGVSWVRQAPGQGLEWMGWISPYSGNTDYAQKFQGRVTITADESTSTAYMELSSLRSEDTAVYYCARGLYYMDVWGKGTTVTVSS VL: DIQMTQSPSSLSASVGDRVTITCRASQSISSWLAWYQQKPGKAPKLLIYDASNLETGVPSRFSGSGSGTDFTLTISSLQPEDFATYYCQQSYSTPLTFGGGTKLEIK , report fold selective binding, target pHLA vs minipool of negative control pHLAs.
// result ≥ 3 fold
